Value source: ChEMBL document CHEMBL5316269

target: CAR (NR1I3) (Homo sapiens); experiment: Agonist activity at human GAL4-fused CAR LBD expressed in human HEK293T cells cotransfected with pFR-Luc and pRL-SV40 assessed as increase in luciferase activity at 30 uM incubated for 16 hrs by Dual-Glo luciferase assay relative to control; assay type: cell-based; settings: HEK293T cells expressing GAL4-fused CAR LBD, read-out: Activity
Sequence (Q14994 whole entry, the tested form may be a part): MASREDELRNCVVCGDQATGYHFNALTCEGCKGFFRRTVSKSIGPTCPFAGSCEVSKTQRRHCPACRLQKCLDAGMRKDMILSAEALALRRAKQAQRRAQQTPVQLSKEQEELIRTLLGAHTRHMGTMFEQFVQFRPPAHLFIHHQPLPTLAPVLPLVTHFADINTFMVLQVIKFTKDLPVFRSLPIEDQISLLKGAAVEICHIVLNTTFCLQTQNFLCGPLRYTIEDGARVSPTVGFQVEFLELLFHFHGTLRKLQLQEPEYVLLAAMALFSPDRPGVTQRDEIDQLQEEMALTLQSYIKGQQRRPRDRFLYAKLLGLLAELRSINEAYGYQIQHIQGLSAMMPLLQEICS
Experimental Readout: activity at 16 h, 30 µM (%)

INSERT INTO measurements (smiles_input, target_or_system, experimental_readout, val) VALUES
  ('Cc1ccc(OCc2ccc(CCC(=O)O)c(F)c2)c2c1CCC2', 'CAR (NR1I3) (Homo sapiens)', 'activity at 16 h, 30 µM', 9);
